details: in water, 318.2 K
measurement-name: solubility (mole fraction)
Answer using only a numeral; do not append any unit.

Field solubility (mole fraction) (entry O=C(O)CC(O)C(=O)O (stereo unspecified) ) reads 0.132

====

conditions: in isopropanol, 313.2 K
measurement-name: solubility (mole fraction)
Field format: numeric only.

Value of measured solubility (mole fraction) for the entry O=C(O)CC(O)C(=O)O (stereo unspecified) : 0.055
